Each recorded value in this set is attributed to patent US20200339657A1.

- SYSTEM_UNDER_TEST: HLA-B*07:02 (Homo sapiens)
- EXPERIMENT_DESCRIPTION: MHC binding assay (UV-ligand exchange, β2m ELISA)
- REPORTED_CONDITIONS: peptide exchange yield, binding to HLA-B*07:02
RECORDED_METRIC: Peptide exchange

// known answers, use as guide
1. 255 (LPDGSRVEL; listed as Homo sapiens) [compound 255]: “++” (>20% = ++)
2. 149 (YPLTGDTRL; listed as Homo sapiens) [compound 149]: “++” (>20% = ++)
3. 157 (SPSPGKDPTL; listed as Homo sapiens) [compound 157]: “++” (>20% = ++)
4. 143 (FELPTGAGLQL; listed as Homo sapiens) [compound 143]: “++” (>20% = ++)
5. 144 (IPEPSAQQL; listed as Homo sapiens) [compound 144]: “++” (>20% = ++)
6. 156 (HPQVVILSL; listed as Homo sapiens) [compound 156]: “+++” (>50 = +++)
7. 163 (RPASSLRP; listed as Homo sapiens) [compound 163]: “++” (>20% = ++)
8. 153 (APAAVPSAPA; listed as Homo sapiens) [compound 153]: “+++” (>50 = +++)
9. 152 (IPSRLLAIL; listed as Homo sapiens) [compound 152]: “+++” (>50 = +++)
10. 258 (APSGTRVVQVL; listed as Homo sapiens) [compound 258]: “++” (>20% = ++)

State measured Peptide exchange of the substance 259 (RPAVGHSGL; listed as Homo sapiens) [compound 259] with HLA-B*07:02 (Homo sapiens). “++” (>20% = ++)
